The origin of these recorded values is the supplement of paper PMC10065799.

- Test system: Fer (mouse)
- test_method_notes: phosphorylation enrichment, bacterial display (enrichment ratio); higher = better substrate or ligand; peptides without Tyr show the background
Entry class follows phosphorylation enrichment: b0 (below 0.5), b1 (0.5 to below 0.7), b2 (0.7 or more)

> print(dat)
                     chain.sequence  category
 1         RTIPDYTSFNT [EPHB2_Y912]        b0
 2   DLQDENDFKCK [STAT1_Y170_Y170N]        b1
 3     PQAVRYIYTID [DCX_Y103_G100A]        b1
 4    EPYEVYRIVPE [IRF8_Y110_K108E]        b2
 5        RGGWVYVLHPT [TRMT61A_Y67]        b2
 6   VPVPGYTKVPE [SPRR3_Y146_L149V]        b1
 7        LRVKMYNFLRS [ADGRG7_Y760]        b2
 8         HQEPVYSVAFS [TBL1X_Y509]        b2
 9  SAEKAYHEQFS [TUBA1A_Y282_L286F]        b0
10   KRFAFYRDSPR [FOXE3_Y108_E103K]        b0
11         PIPAAYNRYDQ [CDC73_Y290]        b1
12      EGNERYEGFCV [GRIA3_Y451_YF]        b1

----------
- measured_target: Grb2 SH2 (UniProt P62993)
- Sequence (P62993 whole entry, looked up): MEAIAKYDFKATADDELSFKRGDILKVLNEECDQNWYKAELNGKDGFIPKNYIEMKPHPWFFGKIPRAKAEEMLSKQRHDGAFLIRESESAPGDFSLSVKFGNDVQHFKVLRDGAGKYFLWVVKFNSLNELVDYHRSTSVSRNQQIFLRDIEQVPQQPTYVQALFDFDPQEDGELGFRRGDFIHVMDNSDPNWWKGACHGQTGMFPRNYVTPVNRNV
- test_method_notes: SH2 binding enrichment of the phosphorylated peptide, bacterial display (enrichment ratio); higher = better substrate or ligand; peptides without Tyr show the background
Assign class by SH2 binding enrichment: not lower than 0.8 means satisfied; lower than 0.8 means not satisfied.

> print(dat)
                        chain.sequence       category
 1     LLKANYELLNA [POLR3A_Y714_K713N]      satisfied
 2      FGGLRYGFGVL [KRTAP20-2_Y13_YF]  not satisfied
 3      IKSSIYDNRNE [ARAP2_Y380_K384N]  not satisfied
 4        ETLLYYGYRRS [POR_Y564_C566Y]  not satisfied
 5      TEVRRYVLPLN [RPE65_Y368_P363T]      satisfied
 6      RVFIKYLPEWT [PSEN1_Y240_L235R]      satisfied
 7        FLAVGYHKPRI [IDS_Y225_H229R]      satisfied
 8  GGQVFHNSEFG [FLT4_Y1333_Y1333H_YF]  not satisfied
 9      ERTIEYLEEVV [HADHA_Y239_A244V]      satisfied
10            ITKQEYDEAGP [ACTA1_Y364]      satisfied
11        CEAMEYQESKQ [BTK_Y511_L512Q]      satisfied
12              GYQPDYGQPAG [SYP_Y278]  not satisfied

----------
- measured_target: EPHB2 (UniProt P29323)
- Sequence (P29323 whole entry, looked up): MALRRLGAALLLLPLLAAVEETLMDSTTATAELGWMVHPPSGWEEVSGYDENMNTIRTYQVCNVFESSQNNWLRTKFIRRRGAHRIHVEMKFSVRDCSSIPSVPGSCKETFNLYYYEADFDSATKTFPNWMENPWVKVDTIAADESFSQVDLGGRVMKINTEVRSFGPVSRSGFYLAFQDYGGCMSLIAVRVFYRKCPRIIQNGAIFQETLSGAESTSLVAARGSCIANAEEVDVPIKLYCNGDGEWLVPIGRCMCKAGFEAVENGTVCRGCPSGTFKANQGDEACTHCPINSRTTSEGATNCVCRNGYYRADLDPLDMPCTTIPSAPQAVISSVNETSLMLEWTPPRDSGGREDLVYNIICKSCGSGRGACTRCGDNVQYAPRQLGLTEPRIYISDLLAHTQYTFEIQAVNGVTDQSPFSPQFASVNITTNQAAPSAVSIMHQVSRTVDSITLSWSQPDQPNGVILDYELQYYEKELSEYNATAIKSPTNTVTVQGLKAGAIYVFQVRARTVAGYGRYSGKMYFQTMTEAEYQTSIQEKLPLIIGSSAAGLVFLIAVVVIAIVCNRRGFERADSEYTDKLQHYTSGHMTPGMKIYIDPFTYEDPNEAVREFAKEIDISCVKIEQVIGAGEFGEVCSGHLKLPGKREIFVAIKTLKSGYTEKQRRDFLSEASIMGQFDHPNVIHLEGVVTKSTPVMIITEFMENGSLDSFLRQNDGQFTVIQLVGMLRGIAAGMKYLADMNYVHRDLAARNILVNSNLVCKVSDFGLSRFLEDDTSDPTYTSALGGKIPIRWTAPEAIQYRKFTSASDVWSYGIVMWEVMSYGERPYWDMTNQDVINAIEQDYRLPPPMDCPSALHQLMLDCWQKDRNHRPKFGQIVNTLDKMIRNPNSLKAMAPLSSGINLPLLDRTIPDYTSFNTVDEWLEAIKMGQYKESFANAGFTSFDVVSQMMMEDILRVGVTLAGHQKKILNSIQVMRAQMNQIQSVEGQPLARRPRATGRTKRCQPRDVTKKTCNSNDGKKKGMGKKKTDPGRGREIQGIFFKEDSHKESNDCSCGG
- test_method_notes: phosphorylation enrichment, bacterial display (enrichment ratio); higher = better substrate or ligand; peptides without Tyr show the background
I'd appreciate it if you could label each record using phosphorylation enrichment and these ranges: lower (below 0.5), middle (0.5 to below 0.6), upper (0.6 or more)

> print(dat)
                         chain.sequence  category
 1       NHFKICNLCAE [PTEN_Y68_Y68C_YF]     lower
 2     RGVAHYILQTF [SLC39A4_Y359_T357A]     upper
 3               GIADDYDKKKL [EIF1_Y54]    middle
 4        VNNLVYENING [FRS2_Y306_K303N]     upper
 5              EKFVPYYDLFM [IPO5_Y530]     upper
 6      PSDLLYIPDIQ [ITGA2B_Y845_L847P]     upper
 7   PSELFYSKISP [SMG1_Y2254_G2258S_YF]     upper
 8         LFHENYNAGTY [CFI_Y421_I416L]     upper
 9              EFLRNYFTDKA [DSG2_Y775]     lower
10      KEAALYPHLLP [SQSTM1_Y383_P387L]    middle
11         PGVDIYVSPNM [PADI3_Y51_I52V]     upper
12            NGVSYYINLCQ [IGF2R_Y2025]    middle
13               DRLAVYIDRVR [LMNA_Y45]    middle
14          GEDEPYSEPFA [APBA1_Y183_YF]    middle
15      SSVKLYRVFCD [FGB_Y266_P265L_YF]     upper
16          ADDSFYTARSA [ZAP70_Y493_YF]    middle
17        KFMVGYEMIAQ [GALT_Y339_L342I]    middle
18         IDPFIYTPFGS [CYP3A4_Y432_YF]    middle
19       LQTYHYHGHSM [PDHA1_Y289_R288H]     upper
20  MENFIYESMQF [CYP19A1_Y361_R365Q_YF]     upper
21     LGPSDYFGETA [PRKAR1A_Y323_I327T]     lower
22             KHASTYREAAT [DEAF1_Y483]     lower
23  EQKKFYNATKK [SCN5A_Y1495_M1498T_YF]     lower
24           SPYAVYRFFTF [RPGRIP1_Y826]    middle
25              SVVVPYEPPEV [TP53_Y220]     upper
26        KEIHAYRKLLE [LMNA_Y376_M371K]     lower
27         ADLAKYICENR [ALB_Y287_Q292R]     lower
28              KVNKIYYPDFI [LIG3_Y767]     lower
29          FLGKGYSDGGC [MC4R_Y35_S30F]    middle
30    SFCFRYRCAAQ [SUMF1_Y344_R349Q_YF]    middle
31        EALDFYGELRT [PTEN_Y155_V158L]     upper
32       SSSNPYSTVTV [ACTN2_Y599_M604V]     lower
33             HQEPVYSVAFS [TBL1X_Y509]     upper
34             RPPFTYATLIR [FOXP3_Y342]     upper
35   LERFIYNPEEF [HLA-DPB1_Y59_R61P_YF]     upper
36     MENFIYESMQY [CYP19A1_Y361_R365Q]     upper
37         CEAMEYQESKQ [BTK_Y511_L512Q]    middle
38              VRHRRYKHTHE [CTCF_Y343]     upper
39     MNKNAYHNVTT [ST3GAL6_Y306_A311T]     lower
40         HRGSLYLAIEY [TEK_Y899_Y897S]     upper
41             DIRAQYDELAR [KRT18_Y256]     lower
42       TEVRRYVLPLN [RPE65_Y368_P363T]     lower
43              ETKRPYTVILI [SBDS_Y128]    middle
44        YSNKLHYQLEQ [PDPR_Y109_Y109H]     lower
45       KNAEKYAEEDW [HSPA9_Y568_R573W]     upper
46               GKTQQYDCKWY [BCR_Y751]    middle
47        GVTLLCYGRYN [ADGRD1_Y85_Y85C]     upper
48           EREYKYGAHKY [OAT_Y50_N54K]     lower
49       YVPSFYHAFSG [ACTN4_Y265_S262P]     upper
